test: Pharmacokinetics of 25-mg single morning or evening dose, part 2; type: in vivo, human; settings: human, plasma, oral, 25 mg
Quantity Measured: Tmax (h)
Numbers only, in h.

Look at this compound and give its reported Tmax. C[C@@H](Oc1ccc(S(C)(=O)=O)cc1C(=O)N1C[C@@H]2C[C@]2(c2cc(C(F)(F)F)on2)C1)C(F)(F)F 4.5

----------
assay: Pharmacokinetics after single and multiple doses, part 1; format: in vivo, human; details: human, plasma, oral, 75 mg, AUC0–24, young, 75 mg BID, single dose, fed, gMean (%CV)
Quantity Measured: AUC(0-t) (µM·h)
Give bare numbers, in µM·h.

Look at this compound and give its reported AUC(0-t). C[C@@H](Oc1ccc(S(C)(=O)=O)cc1C(=O)N1C[C@@H]2C[C@]2(c2cc(C(F)(F)F)on2)C1)C(F)(F)F [BI 425809] 12
